- study_system: T1, recombinant cynomolgus monkey PD-1 expressed with a C-terminal myc-myc-hexahistidine tag (cynomolgus monkey (Macaca fascicularis))
- T1 construct: monomeric; also called MfPD-1-MMH
- T1 chain: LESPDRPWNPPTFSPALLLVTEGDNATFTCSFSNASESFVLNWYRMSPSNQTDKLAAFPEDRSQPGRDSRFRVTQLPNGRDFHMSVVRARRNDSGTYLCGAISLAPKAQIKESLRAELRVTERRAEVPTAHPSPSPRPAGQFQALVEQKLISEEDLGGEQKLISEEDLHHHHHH
- assay_summary: SPR, mAb captured, 25C;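 further: rates from fitting Biacore data for PD-1 binding to anti-PD-1 antibodies with a 1:1 model, KD computed as koff/kon and t½ as ln2/(60·koff)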
Could you mark each record criterion met if its kon falls strictly under 60000 M⁻¹ s⁻¹, and criterion not met if it equals or exceeds it?

Some solved entries appear below for comparison.
H1M7799N (antibody, mouse IgG1, V domains shown, Human variable regions, mouse IgG1 Fc) VH: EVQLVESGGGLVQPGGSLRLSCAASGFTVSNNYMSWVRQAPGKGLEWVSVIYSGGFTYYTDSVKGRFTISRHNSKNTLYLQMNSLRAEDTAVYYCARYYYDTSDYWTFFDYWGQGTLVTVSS VL: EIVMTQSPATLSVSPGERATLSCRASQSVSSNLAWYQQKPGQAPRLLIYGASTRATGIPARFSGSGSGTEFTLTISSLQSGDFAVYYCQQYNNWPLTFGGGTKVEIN    criterion met
H2aM7795N (antibody, mouse IgG2a, V domains shown, Human variable regions, mouse IgG2a Fc; also called H2M7795N) VH: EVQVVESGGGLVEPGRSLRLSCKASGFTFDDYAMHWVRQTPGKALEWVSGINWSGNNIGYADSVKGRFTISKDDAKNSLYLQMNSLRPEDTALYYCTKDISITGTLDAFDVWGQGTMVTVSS VL: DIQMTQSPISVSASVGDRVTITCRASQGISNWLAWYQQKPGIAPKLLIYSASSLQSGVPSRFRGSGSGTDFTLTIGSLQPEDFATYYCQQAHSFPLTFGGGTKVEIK    criterion met
H4H7795N2 (antibody, human IgG4 S228P, kappa, V domains shown) VH: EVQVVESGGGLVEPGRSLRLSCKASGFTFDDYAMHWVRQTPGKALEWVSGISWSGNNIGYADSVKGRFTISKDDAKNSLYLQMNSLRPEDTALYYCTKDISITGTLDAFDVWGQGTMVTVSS VL: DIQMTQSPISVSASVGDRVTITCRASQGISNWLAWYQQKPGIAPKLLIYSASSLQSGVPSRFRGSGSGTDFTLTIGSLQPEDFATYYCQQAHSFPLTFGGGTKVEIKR    criterion not met

Input: I'd appreciate it if you could check whether H2aM7791N (antibody, mouse IgG2a, V domains shown, Human variable regions, mouse IgG2a Fc; also called H2M7791N) VH: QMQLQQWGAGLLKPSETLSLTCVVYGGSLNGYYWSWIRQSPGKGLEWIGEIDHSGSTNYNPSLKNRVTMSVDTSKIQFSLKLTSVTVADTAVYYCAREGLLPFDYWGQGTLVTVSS VL: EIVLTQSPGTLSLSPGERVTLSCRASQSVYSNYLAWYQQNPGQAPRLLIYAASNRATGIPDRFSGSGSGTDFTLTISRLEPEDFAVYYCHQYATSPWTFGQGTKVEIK has kon smaller than 60000 M⁻¹ s⁻¹.
Output: criterion met

Input: I'd appreciate it if you could check whether H2aM7798N (antibody, mouse IgG2a, V domains shown, Human variable regions, mouse IgG2a Fc; also called H2M7798N) VH: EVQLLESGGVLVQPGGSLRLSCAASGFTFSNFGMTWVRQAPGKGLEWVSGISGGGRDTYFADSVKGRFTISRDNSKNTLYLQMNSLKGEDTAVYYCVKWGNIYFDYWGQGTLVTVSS VL: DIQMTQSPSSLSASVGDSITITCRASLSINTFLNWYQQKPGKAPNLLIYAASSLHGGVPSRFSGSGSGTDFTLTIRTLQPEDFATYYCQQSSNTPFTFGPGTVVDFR has kon smaller than 60000 M⁻¹ s⁻¹.
Output: criterion not met

Input: I'd appreciate it if you could check whether H1M7789N (antibody, mouse IgG1, V domains shown, Human variable regions, mouse IgG1 Fc) VH: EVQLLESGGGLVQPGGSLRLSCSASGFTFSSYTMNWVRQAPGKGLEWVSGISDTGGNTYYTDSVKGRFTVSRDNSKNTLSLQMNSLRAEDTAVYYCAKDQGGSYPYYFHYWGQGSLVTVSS VL: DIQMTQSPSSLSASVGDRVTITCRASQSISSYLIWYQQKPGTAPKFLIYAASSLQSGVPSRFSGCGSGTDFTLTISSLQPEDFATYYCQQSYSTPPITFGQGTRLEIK has kon smaller than 60000 M⁻¹ s⁻¹.
Output: criterion met
